- target-or-test-system: T1, human PVRIG on cells (human, UniProt Q6DKI7 1-326)
- T1 construct: whole, on cells; over-expressed on HEK cells or endogenous on Jurkat and CD8 T cells; also called hPVRIG; HEK hPVRIG cells
- T1 sequence (looked up): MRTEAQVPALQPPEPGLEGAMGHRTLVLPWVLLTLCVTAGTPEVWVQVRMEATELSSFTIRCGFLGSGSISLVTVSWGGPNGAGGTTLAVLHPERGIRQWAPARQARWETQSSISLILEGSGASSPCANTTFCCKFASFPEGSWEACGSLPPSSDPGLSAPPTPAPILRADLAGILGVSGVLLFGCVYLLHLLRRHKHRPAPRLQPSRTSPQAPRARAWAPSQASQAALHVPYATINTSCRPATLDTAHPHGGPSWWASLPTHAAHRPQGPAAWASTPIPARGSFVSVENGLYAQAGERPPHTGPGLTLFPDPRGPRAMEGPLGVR
- assay: FACS, Jurkat cells, relative to control, 3.3ug/ml
Kindly state gMFIr Jurkat for each of the entries shown.
I'd appreciate a reply containing only the number, no unit.

Data request: Look up gMFIr Jurkat for this binder: CHA.7.508 (antibody, V domains shown) VH: EVQLQQSGPDLVKPGASMKISCKASGYTFIDYNIHWVKQSQGKSLDWIGYIYPYNGGTGYNQKFKNKATLTVDSSSSTAYMEVRSLTFEDSAVYFCAREADYYGNRGQFDYWGQGTLVTVSA VL: DIQMTQSPASLSVSVGETVTITCRASENIFSNLAWYQQKQGKSPQLLVYGEANLADGVPSRFSGSGSGTQYSLKINSLQSEDFGNYYCQHFWGTPYTFGGGTTLEIK
Data returned: 6.5

Data request: Also check CHA.7.514 (antibody, V domains shown) VH: EVQLRQSGADLVKPGASVKLSCTASGFNIKDTYIDWVKQRPEQGLDWIGRIDPANGNTKYDPKFQGKATIITDTSSNTAYLQLSNLTSEDTAVYYCARYGSYPYFDYWGRGTTLAVSS VL: SIVMTQTPKFLLISAGDRVTITCKASQSVRNDVAWYQQKPGQSPKLLMYYASNRYTGVPDRFTGSGYGTDFTFTISTVQAEDLAVYFCQQDYSSPPTFGGGTKLEIK
Data returned: 7.67

Data request: // next record CHA.7.503 (antibody, V domains shown) VH: QVQLQQSGAELAKPGASVKMSCKASGYTFTSNWMHWVKQRPGQGLEWIGYINPSNGYTECNQKFRDKATLSADKSSSTAYMQLNSLTSADSAVYYCALMISAWLPYWGQGTLVTVSA VL: DIVLTQSPASLAISLGQRATISCRASQSVSASSYSYVHWYQQKPGQPPKLLIKYASSLESGVPARFSGSGSGTDFTLNIHPVEEEDTATYYCLHTWEIPYTFGGGTKLEIK
Data returned: 23.6
